tested target: rat dopamine D-2 receptor (Rattus norvegicus)
setup conditions: read-out: mean KI; 0.1 mM GTP and 120 mM NaCl, LZR1 membranes
observed property: Ki

> print(dat)
                         structure.notation                             tested.target  experimental.value
1  CC(C)C[C@H]1C(=O)N2CCC[C@H]2[C@]2(O)O[C@](NC(=O)[C@@H]3C=C4c5cccc6[nH]c(Br)c(c56)C[C@H]4N(C)C3)(C(C)C)C(=O)N12  rat dopamine D-2 receptor (Rattus norvegicus)                2 nM

* * *

tested target: rat dopamine D-2 receptor (Rattus norvegicus, UniProt P61169)
Sequence (P61169 1-415 isoform P61169-2): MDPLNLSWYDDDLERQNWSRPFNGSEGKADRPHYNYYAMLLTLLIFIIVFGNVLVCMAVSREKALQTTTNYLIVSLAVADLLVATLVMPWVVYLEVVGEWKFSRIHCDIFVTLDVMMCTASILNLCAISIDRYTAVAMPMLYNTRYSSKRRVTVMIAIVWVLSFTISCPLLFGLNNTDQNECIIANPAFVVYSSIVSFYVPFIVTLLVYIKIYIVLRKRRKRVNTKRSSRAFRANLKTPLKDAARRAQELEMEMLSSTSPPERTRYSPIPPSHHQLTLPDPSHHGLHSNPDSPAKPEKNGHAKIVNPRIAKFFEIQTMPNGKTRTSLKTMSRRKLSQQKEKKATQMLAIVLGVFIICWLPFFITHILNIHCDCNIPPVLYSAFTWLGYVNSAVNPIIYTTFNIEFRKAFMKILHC
setup conditions: read-out: KI for inhibition of [3H]spiroperidol binding; single experiment FIG. 9A, radioligand 230 pM
observed property: Ki (nM)

> print(dat)
                         structure.notation  experimental.value
1  CC(C)C[C@H]1C(=O)N2CCC[C@H]2[C@]2(O)O[C@](NC(=O)[C@@H]3C=C4c5cccc6[nH]c(Br)c(c56)C[C@H]4N(C)C3)(C(C)C)C(=O)N12                   5

* * *

tested target: dopamine-D2 receptor (Rattus norvegicus)
Sequence (P61169 1-415 isoform P61169-2): as above
test description: Adenylate cyclase activity in membranes from GH4ZR7 cells
Format: biochemical
Parameters: Full-length dopamine-D2 cDNA (17) was excised from λGT10 with Sal I; expressed in transfected cells
setup conditions: read-out: EC50, inhibition of adenylate cyclase
observed property: EC50 (nM)

> print(dat)
                         structure.notation                             tested.target  observed.property  experimental.value
1  CC(C)C[C@H]1C(=O)N2CCC[C@H]2[C@]2(O)O[C@](NC(=O)[C@@H]3C=C4c5cccc6[nH]c(Br)c(c56)C[C@H]4N(C)C3)(C(C)C)C(=O)N12  dopamine-D2 receptor (Rattus norvegicus)               EC50                   5
